Experiment Notes: soluble on expression in E. coli; label from the status in PepcDB or PDB records
Value Kind: soluble on expression in E. coli

MSDVATLESFRLADSFLPVGTYTVSYGLEQFIQDDRVEDATDLEGLLSTYLRRQIGPAELVALRAAHAAATDGDIEAICHADQRLSAVTLAAEFRESAQQSGDRLLSLQTELRDEALLNRYAERVDADDAPGNYAVVLGVATGLADVAVREACLLCCHGFVTGLLGAAQRLLSLGHTDAQRILNDLQPVMTAAVDDSADRGIDEMTPFAPLVDVLAAEHERAERRLFASLEHHHHHH not soluble
SAGVRGLRFVERFGDNTASLIKNAILLDQQKVEVFNIRFKSSRDFTIQIKLNAKGNYKKSEVEKYKSQIGVQDNELGDKEEGTLEADLIFTYTPPASNLFSKSNFDKLTKSINFNTNLKLEMVGKDEVMRKILNSSAFTNNLASVNYPNQAVNLLPYVLYSIL not soluble
GPGSMPSITTAKREYEERLVDCLTKYSCVLFVGMDNVRSQQVHDVRRALRGKAEFMMGKKTLQAKIVEKRAQAKDASAEAKHFNDQCEEYNLLSGNTGLIFTNNAVQEITSVLDAHRVKAPARVGAISPCDVIVPAGSTGMEPTQTSFFQALNIATKIAKGMVEIVTEKKVLSVGDKVDNSTATLLQKLNISPFYYQVNVLSVWDRGVLFTREDLMMTEDMVEKMLMDGLS not soluble

* * *

Experiment Notes: soluble on expression in E. coli; label from the status in PepcDB or PDB records
Value Kind: soluble on expression in E. coli

MTGPVTRADPTPGLRTGRRPGNPDTRSRILAAARKLFAQNGFDKTSVRSVATGAGVDSALIHHYFGTKRELFLASVDIPVDPTQVIAPVLDIPTGEVGSHLARAVFSVWESPHKPAVVAAFRSAMAGNEPNLIRTFLLEVVLRDLGPRVDEPPGTGMLRMQLVASQMAGVLVTRYILEFEPLASLPVDDLVAIVGPTLQRYLTGALP not soluble
MSLAAPNAASGVLKLYRAYREQAQRLSDLSDLLAREGHETALSSTRLPIDEVRHVFENRPAYFHAIDAAAEELHKQLSTGDDLASGLRAWLQKNHGIVVRTLPVHAMPNLRRRYDRHSMRLFLSERLSQPDQLREMAMETCLLALREEIGTELEALGLKGEEARRIARFELARYAAHALMMPYGAFLAAAQRAKYDLDVLRSRFNVSFEQAANRLVSLQRPTTAAIPFFLMEIDNAGNRFRLAGAGGFPRARFGGLCPRLNIHAAFAQPGQVLVESVEMPDGDAFLTVSRTLEGEGHHHHHH not soluble

* * *

Experiment Notes: soluble on expression in E. coli; label from the status in PepcDB or PDB records
Value Kind: soluble on expression in E. coli

TKRYYKSAFPVRICVIQYEMKKIYSFEEFANQVEYYVDVASDARSDFAVFPEIFTTQLMSFLEERSPSLAVQRITEYTEDYISLFTDLAVKYNVNIIGGSHFVEEEGKIYNIAYLFRRDGTIEKQYKLHITPNERKWWGISAGDQVRVFDTDCGKIAIQICYDIEFPELARIAADKGAKIIFTPFCTEDRQGYLRVRYCSQARAVENQIYTVISGTVGNLPQTENMDIQYAQSGIFAPSDFEFARDGIVGETNPNIEMVVIGDVDLEILRRQRQNGTVRQLKDRRRDIYHIQYKK not soluble
MGSDKIHHHHHHMNAVQVLNFQQNSVRTVADNKGELWFLANDVCEILGYTNPRRTVDLHCKSRGVTKRYTPTTSGEQEMTYINEPNLYRLIIKSRKPAAEAFEEWVMETVLPAIRKTGGCQVGPKTTADDRTGLRQAVAALVGRKGIDYSSAYSMIHQRFNVESIEDLPAGKLPEAVAYVHALTLHTGLTGEVLDAPPKAEPKLPIDGNSLADIAAMVYYGTWMIESGKDISAPLKQLGCRQAVTMWTVWHETRPILKRSAAALEVLRGYADKDASDRIAACLEGIYGKATVR not soluble
